Where do the numbers come from? From ChEMBL document CHEMBL2016523.

- EXPERIMENTAL SYSTEM: C-C chemokine receptor type 2 (Homo sapiens)
- Sequence (P41597 whole entry): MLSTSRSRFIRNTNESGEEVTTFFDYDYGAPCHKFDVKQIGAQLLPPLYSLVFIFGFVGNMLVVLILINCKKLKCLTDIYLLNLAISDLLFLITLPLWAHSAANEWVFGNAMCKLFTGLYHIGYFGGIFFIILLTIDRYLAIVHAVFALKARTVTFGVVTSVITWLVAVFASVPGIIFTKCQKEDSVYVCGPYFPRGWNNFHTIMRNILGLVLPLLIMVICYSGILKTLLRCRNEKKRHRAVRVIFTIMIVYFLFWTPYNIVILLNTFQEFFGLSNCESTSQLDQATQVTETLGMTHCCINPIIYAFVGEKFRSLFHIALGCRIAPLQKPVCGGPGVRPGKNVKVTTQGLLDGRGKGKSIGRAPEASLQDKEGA
- EXPERIMENT DESCRIPTION: Displacement of [125-I]MCP1 from CCR2 on human PBMC
ATTRIBUTE MEASURED: IC50 (nM)

Below are worked cases with known answers.
Query: Name the recorded IC50 of the item CCC[C@H](O)[C@H](CNCc1ccc(C)cc1C)NC(=O)CNC(=O)c1cc(C(F)(F)F)ccc1NC(C)(C)C in your answer.
Response: 7.4

Query: Name the recorded IC50 of the item CCC[C@H](O)[C@H](CNCc1ccc(C)cc1C)NC(=O)CNC(=O)c1cc(C(F)(F)F)ccc1N in your answer.
Response: 3.4

Query: Name the recorded IC50 of the item CCC[C@H](O)[C@H](CNCc1ccc(C)cc1C)N1CC[C@H](NC(=O)c2cc(C(F)(F)F)ccc2N)C1=O in your answer.
Response: 900

(A) CCC[C@H](O)[C@H](CNCc1ccc(C)cc1C)NC(=O)CC(=O)Nc1cc(N)cc(C(F)(F)F)c1
(B) CCC[C@H](O)[C@H](CNCc1ccc(C)cc1C)NC(=O)CNC(=O)c1cc(N)cc(C(F)(F)F)c1
(C) CCC[C@H](O)[C@H](CNCc1ccc(C)cc1C)NC(=O)CNC(=O)c1cc(C(F)(F)F)ccc1NC(=O)N1CCNCC1
(D) Cc1ccc(CNC[C@H](NC(=O)CNC(=O)c2cccc(C(F)(F)F)c2)[C@@H](O)c2ccccc2)c(C)c1
(E) CCC[C@H](O)[C@H](CNCc1ccc(C)cc1C)NC(=O)CC(=O)Nc1cc(NC(=O)NCC)cc(C(F)(F)F)c1
Query: With regard to IC50, arrange the entries in ascending order, please. Put the labels in the order asked and list them.
Response: C, A, B, E, D
(C: 2.5 nM, A: 3.8 nM, B: 6.7 nM, E: 40 nM, D: 100 nM)

* * *

- EXPERIMENTAL SYSTEM: C-C chemokine receptor type 2 (Mus musculus)
- EXPERIMENT DESCRIPTION: Binding affinity to mouse CCR2
The source made the active and inactive calls. The calls are words filed in the database; no cut-off is given here.
Write down one outcome, taken from class 1 for active, class 0 for inactive

Query: Hi team, can someone confirm the assay call for Cc1ccc(CNC[C@H](NC(=O)CNC(=O)c2cccc(C(F)(F)F)c2)[C@@H](O)CC(C)C)c(C)c1 ?
Response: class 0

Query: Hi team, can someone confirm the assay call for CCC[C@H](O)[C@H](CNCc1ccc(C)cc1C)NC(=O)CNC(=O)c1cccc(C(F)(F)F)c1 ?
Response: class 1

Query: Hi team, can someone confirm the assay call for CCC[C@H](O)[C@H](CNCc1ccc(C)cc1C)NC(=O)CNC(=O)c1cc(C(F)(F)F)ccc1NC(=O)NCC ?
Response: class 1

Moving on to another molecule below.
Query: Hi team, can someone confirm the assay call for Cc1ccc(CNC[C@H](NC(=O)CNC(=O)c2cccc(C(F)(F)F)c2)[C@H](O)CC(C)C)c(C)c1 ?
Response: class 0

* * *

- EXPERIMENTAL SYSTEM: C-C chemokine receptor type 2 (Homo sapiens)
- EXPERIMENT DESCRIPTION: Displacement of [125-I]MCP1 from CCR2 on human PBMC
pIC50: −log10 of the molar value.
ATTRIBUTE MEASURED: pIC50

Below are worked cases with known answers.
Query: Name the recorded pIC50 of the item Cc1ccc(CNC[C@H](NC(=O)CNC(=O)c2cc(C(F)(F)F)ccc2N)C(C)(C)O)c(C)c1 in your answer.
Response: 6.80

Query: Name the recorded pIC50 of the item CCCC[C@@H](O)[C@H](CNCc1ccc(C)cc1C)NC(=O)CNC(=O)c1cccc(C(F)(F)F)c1 in your answer.
Response: 6.74

Query: Name the recorded pIC50 of the item CCC(O)(CC)[C@H](CNCc1ccc(C)cc1C)NC(=O)CNC(=O)c1cc(C(F)(F)F)ccc1N in your answer.
Response: 7.39

(I) CCC[C@H](O)[C@H](CNCc1ccc(C)cc1C)NC(=O)CC(=O)Nc1cc(NCC)cc(C(F)(F)F)c1
(II) Cc1ccc(CNC[C@H](NC(=O)CNC(=O)c2cccc(C(F)(F)F)c2)[C@H](O)CC(C)(C)C)c(C)c1
Query: pIC50 comparison. Which is larger, I or II ? Output the label that corresponds to your choice.
Response: I
(I: 8.35, II: 6.22)

(P) CCC[C@H](O)[C@H](CNCc1ccc(C)cc1C)NC(=O)CC(=O)Nc1cc(C(F)(F)F)cc(C(F)(F)F)c1
(Q) CCC[C@H](OC)[C@H](CNCc1ccc(C)cc1C)NC(=O)CNC(=O)c1cc(C(F)(F)F)ccc1N
(R) CC[C@H](O)[C@H](CNCc1ccc(C)cc1C)NC(=O)CNC(=O)c1cccc(C(F)(F)F)c1
Query: Order the 3 compounds from highest to lowest pIC50. Put the labels in the order asked and list them.
Response: Q, R, P
